Each recorded value in this set is attributed to the supplement of paper PMC10981050.

In this section we review reported cell viability values for a set of compounds.
# System: MARIMO;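 also: after 48 h exposure read by CellTiter-Glo luminescence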
# assay.text: cell viability relative to vehicle control; higher = less cytotoxic
# stated.conditions: 10 µM; SRSF2 genotype: SRSF2 P95H/wt
Where a name gives a salt, the structure may show the parent alone.
observation.type: cell viability

compound="NCCc1ccccc1 [2-Phenylethylamine hydrochloride]" result=103%
compound=COc1cc(C)[nH]c(=O)c1CNC(=O)c1c(C)n([C@H](C)C2CCOCC2)c2ccccc12 result=106%
compound="COc1cc(-n2c(=S)[nH]c3ccccc3c2=O)c(Cl)cc1Cl [Mdivi-1]" result=90.7%
compound="CC(=O)OCC1=C(C(=O)O)N2C(=O)C(N)C2SC1 (configuration not stated) [7-Aminocephalosporanic acid]" result=101%
compound="CC(C)[C@]12O[C@H]1[C@@H]1O[C@]13[C@]1(O[C@H]1C[C@H]1C4=C(CC[C@@]13C)C(=O)OC4)[C@@H]2O [Triptolide]" result=10.4%
compound="CCOc1ccccc1-n1c(C(C)N2CCN(C(=O)COc3ccc(Cl)cc3)CC2)nc2ccccc2c1=O (configuration not stated) [Erastin]" result=21.1%
compound="CN(C)[C@@H]1C(=O)C(C(N)=O)=C(O)[C@@]2(O)C(=O)C3=C(O)c4c(O)ccc(Cl)c4[C@@](C)(O)[C@H]3C[C@@H]12 [Chlortetracycline HCl]" result=105%
compound="CC(C)c1cc2c(c(O)c1O)[C@@]1(C(=O)O)CCCC(C)(C)[C@@H]1CC2 [Carnosic acid]" result=41.8%
compound="C[C@]12C=CC(=O)C=C1CC[C@@H]1[C@@H]2CC[C@@]2(C)[C@H]1CC[C@]2(C)O [Methandrostenolone]" result=103%
compound="CC(=O)OC1CN2CCC1CC2 (configuration not stated) [Aceclidine HCl]" result=104%
compound="CCN1CC2(OC(=O)c3ccccc3NC(C)=O)CCC(OC)C34C1C(CC23)C1(O)CC(OC)C2CC4C1(O)C2OC (configuration not stated) [Lappaconite Hydrobromide]" result=86.7%
compound=Cn1cc(C2=C(c3cn(C4CCN(Cc5ccccn5)CC4)c4ccccc34)C(=O)NC2=O)c2ccccc21 result=93%
compound="CC1=C2C(=O)[C@H]3[C@@H](CC=C4C[C@@H](O)CC[C@@]43C)[C@@H]2CC[C@]12O[C@@H]1C[C@H](C)CN[C@H]1[C@H]2C [Jervine]" result=89.1%
compound="O=C(O[C@H]1C[C@H]2CC[C@@H](C1)[N+]21CCCC1)C(O)(c1ccccc1)c1ccccc1 [Trospium chloride (Sanctura)]" result=101%
compound="O=C1C=CC[C@@H]2[C@H]3CCCN4CCC[C@@H](CN12)[C@@H]34 [Sophocarpine]" result=108%
compound="C=C1[C@H]2C[C@@]3([C@@H]1O)[C@@H](CC2=O)[C@]12[C@@H]4C[C@H]3[C@H]1N(CC)C[C@]4(C)CC[C@@H]2O [Songorine]" result=98%
compound="CCCCC(C#N)(Cn1cncn1)c1ccc(Cl)cc1 (configuration not stated) [Myclobutanil]" result=97%
compound="C=CC(=C)C [Isoprene]" result=103%
compound="CC1=C[C@]23C(=O)[C@@H](C=C(CO)[C@@H](O)[C@]2(O)[C@H]1O)[C@H]1[C@@H](C[C@H]3C)C1(C)C [Ingenol]" result=109%
compound="CC(=O)OC(C)(C)/C=C/C(=O)[C@](C)(O)[C@H]1[C@H](O)C[C@@]2(C)[C@@H]3CC=C4[C@H](C[C@H](O)C(=O)C4(C)C)[C@]3(C)C(=O)C[C@]12C [Cucurbitacin B]" result=8.8%
compound="CCC(C)C(=O)O[C@@H]1[C@@H](OC(C)=O)[C@]2(C)[C@H](C(C)=O)CC[C@@]23O[C@]32CC[C@H]3C[C@@H](O[C@H]4C[C@@H](OC)[C@H](O[C@@H]5O[C@H](C)[C@@H](O)[C@@H](OC)[C@H]5O)[C@@H](C)O4)CC[C@]3(C)[C@@H]12 (some centres not stated) [Tenacissoside H]" result=96.9%
compound="O=C(O)CCCCCCCCCO [10-Hydroxydecanoic acid]" result=97.8%
